experiment: log P by HPLC on reversed-phase column (C 18), EEC Directive 79/831 Annex V.A8; assay type: physicochemical; details: 40° C., 0.1% aqueous formic acid and acetonitrile, linear gradient 10% to 90% acetonitrile
Readout Name: logP
Simply state the number, no unit and no words.

Guide cases for logP, answers given:
Chemical Structure: C[Si](C)(Cc1ccccc1Cl)CN(C(=O)c1cccnc1Cl)C1CC1
Quantitative Result: 4.25

Chemical Structure: C[Si](C)(CN(C(=O)c1cccnc1C(F)(F)F)C1CC1)c1ccc(F)cc1Cl
Quantitative Result: 4.41

Chemical Structure: C[Si](C)(CN(C(=O)c1nccnc1C(F)(F)F)C1CC1)c1ccc(Cl)cc1Cl
Quantitative Result: 5.25

Chemical Structure: C[Si](C)(Cc1ccc(Cl)cc1Cl)CN(C(=O)c1cccnc1C(F)(F)F)C1CC1
Quantitative Result: 5.22

Chemical Structure: C[Si](C)(Cc1ccccc1)CN(C(=O)c1ccccc1C(F)(F)F)C1CC1
Quantitative Result: 4.90

Chemical Structure: C[Si](C)(Cc1ccccc1Cl)CN(C(=O)c1nccnc1C(F)(F)F)C1CC1
Quantitative Result: 4.82

Chemical Structure: C[Si](C)(CN(C(=O)c1ccccc1I)C1CC1)c1ccsc1
Quantitative Result: 4.49

--- query ---
Query: logP; subject: "C[Si](C)(Cc1ccc(Cl)cc1Cl)CN(C(=O)c1ccccc1C(F)(F)F)C1CC1"
5.94

###

experiment: log P by HPLC on reversed-phase column (C 18), EEC Directive 79/831 Annex V.A8; format: physicochemical; details: 40° C., 0.1% aqueous formic acid and acetonitrile, linear gradient 10% to 90% acetonitrile
Catalogue of logP values
Answer as a number with no unit attached.

Worked cases, answers included:
Compound: C[Si](C)(Cc1cc(Cl)cc(Cl)c1)CN(C(=O)c1cccnc1C(F)F)C1CC1
logP: 4.77
//
Compound: C[Si](C)(CN(C(=O)c1nccnc1C(F)(F)F)C1CC1)c1ccccc1C(F)(F)F
logP: 4.61
//
Compound: C[Si](C)(CN(C(=O)c1cccnc1C(F)(F)F)C1CC1)c1ccccc1
logP: 3.89

What measured logP goes with "C[Si](C)(CN(C(=O)c1ccccc1I)C1CC1)c1ccc2ccccc2c1" ?
5.36

Would you kindly share the measured logP for CC[Si](C)(CN(C(=O)c1cccnc1C(F)(F)F)C1CC1)c1ccccc1Cl (stereo not drawn) ?
4.71

Bench note: what logP did "C[Si](C)(CNC(=O)c1cccnc1C(F)F)c1ccccc1Cl" show?
3.06

Please report the recorded logP for "C[Si](C)(CN(C(=O)c1nccnc1C(F)(F)F)C1CC1)c1cccc(Cl)c1" .
4.56

Any idea what its logP is? The compound is "C[Si](C)(CN(C(=O)c1ccccc1C(F)(F)F)C1CC1)c1ccsc1"
4.44

###

Assay: log P by HPLC on reversed-phase column (C 18), EEC Directive 79/831 Annex V.A8
Assay type: physicochemical
Conditions: 40° C., 0.1% aqueous formic acid and acetonitrile, linear gradient 10% to 90% acetonitrile
Protocol: In table 1, the log P values were determined in accordance with EEC Directive 79/831 Annex V.A8 by HPLC (High Performance Liquid Chromatography) on a reversed-phase column (C 18), using the method described below: Temperature: 40° C.; Mobile phases: 0.1% aqueous formic acid and acetonitrile; linear gradient from 10% acetonitrile to 90% acetonitrile. […]
fulfilled means recorded logP is 5 or above; not fulfilled means it is below 5.

Molecule: CC[Si](C)(CN(C(=O)c1cccnc1C(F)F)C1CC1)c1ccccc1Cl (stereo not drawn)
Assigned Class: not fulfilled

Does logP meet or surpass 5 for "C[Si](C)(CN(C(=O)c1ccccc1I)C1CC1)c1cccs1" ?
not fulfilled

Given "C[Si](C)(CN(C(=O)c1cccnc1Cl)C1CC1)c1ccsc1" , state whether its logP is at least 5.
not fulfilled

Assess whether reported logP for "C[Si](C)(CNC(=O)c1nccnc1C(F)(F)F)c1ccccc1" sits at 5 or higher.
not fulfilled

Hi team, for "C[Si](C)(CN(C(=O)c1ccccc1C(F)(F)F)C1CC1)c1cc(Cl)cc(Cl)c1" , is the recorded logP at or above 5?
fulfilled

Hi, just wondering whether "C[Si](C)(Cc1ccccc1)CN(C(=O)c1cccnc1Cl)C1CC1" shows logP of 5 or higher.
not fulfilled

Is the recorded value of logP equal to or greater than 5 for this molecule? "C[Si](C)(CN(C(=O)c1ccccc1I)C1CC1)c1ccc(Cl)cc1Cl"
fulfilled

Check if logP >= 5 (inclusive). Item: "C[Si](C)(Cc1cccc(Cl)c1)CN(C(=O)c1ccccc1C(F)(F)F)C1CC1"
fulfilled
